system: NL4-3 (V38E/N42S); assay type: cell-based, HIV-1; settings: T20-resistant (R) virus, MT-2 cells, p24, fourth day; read-out: IC50 (Mean ± SD)
Measure name: pIC50
One number for each entry, as −log10 of the molar value.

Which pIC50 value belongs to Ac-SWETWEREIENYTRQIYRILEESQEQQDRNERDLLE-NH2 [FS-01] ?
7.36

All figures here come from patent US20100021427A1.
